The reported measurements were obtained from patent US8722937B2.

A short record of pIC50 observed with FabH derived from M. tuberculosis (mtFabH) (Mycobacterium tuberculosis) follows.
Sequence (P9WNG3 whole entry): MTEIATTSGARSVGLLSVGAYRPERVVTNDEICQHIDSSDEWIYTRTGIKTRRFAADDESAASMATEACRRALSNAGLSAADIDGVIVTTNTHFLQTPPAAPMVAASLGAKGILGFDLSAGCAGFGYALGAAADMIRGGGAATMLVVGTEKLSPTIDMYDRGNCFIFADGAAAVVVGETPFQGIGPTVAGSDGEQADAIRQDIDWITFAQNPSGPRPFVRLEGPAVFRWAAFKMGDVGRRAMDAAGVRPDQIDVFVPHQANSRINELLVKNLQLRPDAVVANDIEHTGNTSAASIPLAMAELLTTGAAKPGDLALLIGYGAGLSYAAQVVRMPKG
// field semantics: pIC50 = negative decimal log of concentration (mol/L)

For the compound CCCCCCCCCCSSCCNC(=O)CCNC(=O)[C@H](O)C(C)(C)COP(=O)(O)OP(=O)(O)OC[C@H]1O[C@@H](n2cnc3c(N)ncnc32)[C@H](O)[C@@H]1OP(=O)(O)O [Compound 25f] , the measured pIC50 on FabH derived from M. tuberculosis (mtFabH) (Mycobacterium tuberculosis) was 5.59

Sample CCCCCCCCSSCCNC(=O)CCNC(=O)[C@H](O)C(C)(C)COP(=O)(O)OP(=O)(O)OC[C@H]1O[C@@H](n2cnc3c(N)ncnc32)[C@H](O)[C@@H]1OP(=O)(O)O [Compound 25e] , system: FabH derived from M. tuberculosis (mtFabH) (Mycobacterium tuberculosis). Its pIC50 is 4.63

---

# target.system: FabH derived from E. coli (ecFabH) (Escherichia coli, UniProt P0A6R0)
# Construct: polyhistidine (N); made in house; host or cells: E. coli
# Sequence (P0A6R0 1-317): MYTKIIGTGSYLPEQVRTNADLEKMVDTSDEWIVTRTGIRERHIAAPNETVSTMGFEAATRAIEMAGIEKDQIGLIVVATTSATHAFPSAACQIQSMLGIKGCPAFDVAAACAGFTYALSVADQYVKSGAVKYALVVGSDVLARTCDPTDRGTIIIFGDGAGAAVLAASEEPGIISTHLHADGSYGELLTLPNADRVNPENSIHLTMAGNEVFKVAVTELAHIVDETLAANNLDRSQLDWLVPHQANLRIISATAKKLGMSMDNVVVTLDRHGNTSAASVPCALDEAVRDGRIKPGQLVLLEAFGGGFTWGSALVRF
# test.name: FabH enzyme assay (coupled trichloroacetic acid precipitation assay), ecFabH
# Type: biochemical
# assay.context: 5 μM of test compound; read-out: Percent inhibition of FabH derived from E. coli, ecFabH (%)
Reported inhibition at 5 µM values for a set of compounds
Enter your answer as a number in %; do not include the unit.

Example cases with answers are listed next.
# compound, inhibition at 5 µM [%]
measured = [
    ("CCC(C)SSc1ccc([N+](=O)[O-])cc1 (stereo not drawn) [Compound 38d, Sec-Butyl p-nitrophenyl Disulfide]", 96),
    ("CCSSc1ccc([N+](=O)[O-])cc1 [Compound 38b, Ethyl p-nitrophenyl Disulfide]", 98),
    ("CCCSSc1ccc([N+](=O)[O-])cc1 [Compound 38e, p-Nitrophenyl n-propyl Disulfide]", 91),
    ("CC(C)SSc1ccc([N+](=O)[O-])cc1 [Compound 38c, Isopropyl p-nitrophenyl disulfide]", 98.5),
    ("CCCCSSc1ccc([N+](=O)[O-])cc1 [Compound 38f, n-Butyl p-nitrophenyl Disulfide]", 93),
]

Now turn to the next compound.
Short answer for CSSc1ccc([N+](=O)[O-])cc1 [Compound 38a, p-Nitrophenyl Methyl Disulfide] : inhibition at 5 µM was 94

---

The next entries give measured pIC50 for UniProt P9WNG3.
pIC50: −log10 of the molar value.

# count of solved cases: 2
# compound, result
records = [
    ("CCCCSSCCNC(=O)CCNC(=O)[C@H](O)C(C)(C)COP(=O)(O)OP(=O)(O)OC[C@H]1O[C@@H](n2cnc3c(N)ncnc32)[C@H](O)[C@@H]1OP(=O)(O)O [Compound 25d]", "< 3.52"),
    ("CSSCCNC(=O)CCNC(=O)[C@H](O)C(C)(C)COP(=O)(O)OP(=O)(O)OC[C@H]1O[C@@H](n2cnc3c(N)ncnc32)[C@H](O)[C@@H]1OP(=O)(O)O [Compound 25a]", "< 3.52"),
]

Alright, here's another compound for you.
Summary: CCC(C)SSCCNC(=O)CCNC(=O)[C@H](O)C(C)(C)COP(=O)(O)OP(=O)(O)OC[C@H]1O[C@@H](n2cnc3c(N)ncnc32)[C@H](O)[C@@H]1OP(=O)(O)O (stereo partly drawn) [Compound 25c] , UniProt P9WNG3, pIC50 = < 3.52
